Tested on: Staphylococcus aureus
experimental protocol: Antibacterial activity against methicillin-sensitive Staphylococcus aureus 14-3 after 18 to 24 hrs
Format: functional
For each record, write down the corresponding MIC.

Query: What does the data say about its MIC? Entry: CCO/N=C1\CN(c2nc3c(cc2F)c(=O)c(C(=O)O)cn3[C@@H]2C[C@@H]2F)CC1(C)CN (stereo not given in full)
Result: < 8 ng/mL

Query: Same thing, different compound: NCC1CN(c2nc3c(cc2F)c(=O)c(C(=O)O)cn3[C@@H]2C[C@@H]2F)C/C1=N\OCc1ccc(OC(F)(F)F)cc1 (stereo not given in full)
Result: 15 ng/mL

Query: Repeat for the following compound: CO/N=C1\CN(c2nc3c(cc2F)c(=O)c(C(=O)O)cn3[C@@H]2C[C@@H]2F)CC1(C)CN (stereo not given in full)
Result: < 8 ng/mL

Query: Request: Cc1ccc(CO/N=C2\CN(c3nc4c(cc3F)c(=O)c(C(=O)O)cn4[C@@H]3C[C@@H]3F)CC2CN)cc1 (stereo not given in full)
Result: < 8 ng/mL

Query: Next compound: CC1(CN)CN(c2nc3c(cc2F)c(=O)c(C(=O)O)cn3[C@@H]2C[C@@H]2F)C/C1=N\OCc1ccccc1 (stereo not given in full)
Result: < 8 ng/mL

====

System: Staphylococcus aureus
experimental protocol: Antibacterial activity against methicillin-resistant Staphylococcus aureus 14-4 after 18 to 24 hrs
Type: functional
So I've got a bunch of compounds here, and I need their MIC values.

Query: Which measured MIC value corresponds to NCC1CN(c2nc3c(cc2F)c(=O)c(C(=O)O)cn3[C@@H]2C[C@@H]2F)C/C1=N\OCc1ccc2c(c1)OCO2 (stereo partly drawn) ?
Result: 16 µg/mL

Query: Next compound: CC1(N)CN(c2nc3c(cc2F)c(=O)c(C(=O)O)cn3[C@@H]2C[C@@H]2F)C/C1=N\OCc1ccccc1 (stereo partly drawn)
Result: 32 µg/mL

Query: Here is the next compound: COc1c(N2C[C@@H]3CCCN[C@@H]3C2)c(F)cc2c(=O)c(C(=O)O)cn(C3CC3)c12 [MOXIFLOXACIN]
Result: 16 µg/mL

Query: Also CO/N=C1\CN(c2nc3c(cc2F)c(=O)c(C(=O)O)cn3[C@@H]2C[C@@H]2F)CC1N (stereo partly drawn) ?
Result: 128 µg/mL

Query: Request: NC1CN(c2nc3c(cc2F)c(=O)c(C(=O)O)cn3[C@@H]2C[C@@H]2F)C/C1=N\OCc1ccccc1 (stereo partly drawn)
Result: 32 µg/mL

Query: Try C[C@H]1COc2c(N3CCN(C)CC3)c(F)cc3c(=O)c(C(=O)O)cn1c23.C[C@H]1COc2c(N3CCN(C)CC3)c(F)cc3c(=O)c(C(=O)O)cn1c23.O [LEVOFLOXACIN] next.
Result: 64 µg/mL

Query: What about CCO/N=C1\CN(c2nc3c(cc2F)c(=O)c(C(=O)O)cn3[C@@H]2C[C@@H]2F)CC1(C)N (stereo partly drawn) ?
Result: 64 µg/mL

Query: Consider next the compound Cc1ccc(CO/N=C2\CN(c3nc4c(cc3F)c(=O)c(C(=O)O)cn4[C@@H]3C[C@@H]3F)CC2CN)cc1 (stereo partly drawn) in the same way.
Result: 8 µg/mL

Query: Could you do the same for COc1ccc(CO/N=C2\CN(c3nc4c(cc3F)c(=O)c(C(=O)O)cn4[C@@H]3C[C@@H]3F)CC2CN)cc1 (stereo partly drawn) , please?
Result: 16 µg/mL

Query: Then CO/N=C1\CN(c2nc3c(cc2F)c(=O)c(C(=O)O)cn3[C@@H]2C[C@@H]2F)CC1(C)CN (stereo partly drawn) ?
Result: 8 µg/mL

Query: One more compound: O=C(O)c1cn(C2CC2)c2cc(N3CCNCC3)c(F)cc2c1=O [CIPROFLOXACIN]
Result: > 128 µg/mL

Query: # iterate: NCC1CN(c2nc3c(cc2F)c(=O)c(C(=O)O)cn3[C@@H]2C[C@@H]2F)C/C1=N\OCc1ccc(OC(F)(F)F)cc1 (stereo partly drawn)
Result: 16 µg/mL

Query: And what about the compound COc1cc(CO/N=C2\CN(c3nc4c(cc3F)c(=O)c(C(=O)O)cn4[C@@H]3C[C@@H]3F)CC2CN)cc(OC)c1 (stereo partly drawn) ?
Result: 16 µg/mL

meta.source: ChEMBL document CHEMBL3632558
